Tested on: 857933-349-R-J2-PDC complex spheroid viability
EXPERIMENT DESCRIPTION: Anticancer human tumor 857933-349-R-J2-PDC patient-derived colon adenocarcinoma cell line growth inhibition [POLQ]
CONDITION INFO: second compound 10 µM; first compound 0.316 µM; hits give low values
OBSERVABLE: viability, T/C (%)
Numbers only, in %.

Some solved cases for reference:
Exercise: Return reported viability, T/C; argument: COc1cc2cc(C(=O)CCC(=O)O)sc2cc1OC + Nc1ccc(C#CCN(C(=O)Cc2ncc(C(F)(F)F)cc2C(F)(F)F)c2ccc(F)cc2)nn1
Key: 98.9

Exercise: Name the reported viability, T/C value associated with the molecule C=CCn1c(=O)c2cnc(Nc3ccc(N4CCN(C)CC4)cc3)nc2n1-c1cccc(C(C)(C)O)n1 + Cc1cccc(N(C)C(=O)C2C(O)CCN2c2nc(C)cc(C(F)(F)F)c2C#N)c1
Key: 101

Exercise: What does the record list as viability, T/C for CNCc1ccc(-c2[nH]c3cc(F)cc4c3c2CCNC4=O)cc1 + COC1C(OC(N)=O)C(O)C(Oc2ccc3c(O)c(NC(=O)c4ccc(O)c(CC=C(C)C)c4)c(=O)oc3c2C)OC1(C)C ?
Key: 84.3

Exercise: Please report the recorded viability, T/C for C=CCn1c(=O)c2cnc(Nc3ccc(N4CCN(C)CC4)cc3)nc2n1-c1cccc(C(C)(C)O)n1 + Nc1ccc(C#CCN(C(=O)Cc2ncc(C(F)(F)F)cc2C(F)(F)F)c2ccc(F)cc2)nn1 .
Key: 85.9

Exercise: What measured viability, T/C goes with CCc1cc2c(N3CCc4c(cc(Cn5ccnc5)cc4-c4cn(C)nc4C(F)(F)F)C3=O)ccnc2c(OC)n1 + COC1C(OC(N)=O)C(O)C(Oc2ccc3c(O)c(NC(=O)c4ccc(O)c(CC=C(C)C)c4)c(=O)oc3c2C)OC1(C)C ?
Key: 75.6

Each of the following entries comes with a recorded value; kindly state viability, T/C for each.
1. C=CC(=O)N1CCN(c2nc(=O)n(-c3c(C)ccnc3C(C)C)c3nc(-c4c(O)cccc4F)c(F)cc23)C(C)C1 (centres undefined) + Nc1ccc(C#CCN(C(=O)Cc2ncc(C(F)(F)F)cc2C(F)(F)F)c2ccc(F)cc2)nn1
2. CCc1cc2c(N3CCc4c(cc(Cn5ccnc5)cc4-c4cn(C)nc4C(F)(F)F)C3=O)cc(C)nc2c(OC)n1 + Cc1cccc(N(C)C(=O)C2C(O)CCN2c2nc(C)cc(C(F)(F)F)c2C#N)c1
3. O=c1[nH]cc(F)c(=O)[nH]1 + Cc1cccc(N(C)C(=O)C2C(O)CCN2c2nc(C)cc(C(F)(F)F)c2C#N)c1
4. COc1cccc(OCCCN)c1-c1cc(Nc2cnc(C#N)cn2)n[nH]1 + Cc1cccc(N(C)C(=O)C2C(O)CCN2c2nc(C)cc(C(F)(F)F)c2C#N)c1

Key:
98.9
92.5
99.2
61.2

###

Test system: 857933-349-R-J2-PDC complex spheroid viability
EXPERIMENT DESCRIPTION: Anticancer human tumor 857933-349-R-J2-PDC cell line growth inhibition [POLQ];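 note: spheroids exposed to compounds for seven days before readout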
CONDITION INFO: second compound 3.16 µM; first compound 0.1 µM; hits give low values
Protocol: Multicellular complex tumor spheroid response to Polymerase (POL) inhibitors (novobiocin, ART-558, RP6685) in combination with a variety of drugs and investigational agents in selected tumor cell lines The POL inhibitors (novobiocin, ART-558, and RP6685) were evaluated both individually and in combination with standard of care and investigational anticancer small molecules within a complex spheroid model of solid tumors. . […]
OBSERVABLE: viability, T/C (%)
Give bare numbers, in %.

Exercise: Find the recorded viability, T/C belonging to O=C(Nc1ccc(O)c(NS(=O)(=O)c2ccc(F)cc2)c1)c1ccc(-c2ccccc2)cc1 + Cc1cccc(N(C)C(=O)C2C(O)CCN2c2nc(C)cc(C(F)(F)F)c2C#N)c1 and report it.
Key: 95.9

Exercise: Query: viability, T/C; subject: COc1cccc2c1C(=O)c1c(O)c3c(c(O)c1C2=O)CC(O)(C(=O)CO)CC3OC1CC(N)C(O)C(C)O1 (stereo not given) + Nc1ccc(C#CCN(C(=O)Cc2ncc(C(F)(F)F)cc2C(F)(F)F)c2ccc(F)cc2)nn1
Key: 60.4

Exercise: Would you kindly share the measured viability, T/C for CCc1cc2c(N3CCc4c(cc(Cn5ccnc5)cc4-c4cn(C)nc4C(F)(F)F)C3=O)cc(C)nc2c(OC)n1 + Cc1cccc(N(C)C(=O)C2C(O)CCN2c2nc(C)cc(C(F)(F)F)c2C#N)c1 ?
Key: 91.3

Exercise: May I ask what viability, T/C has been recorded for Cn1ncnc1[C@H]1c2n[nH]c(=O)c3cc(F)cc(c23)N[C@@H]1c1ccc(F)cc1 + Nc1ccc(C#CCN(C(=O)Cc2ncc(C(F)(F)F)cc2C(F)(F)F)c2ccc(F)cc2)nn1 ?
Key: 94.2

As a next step, examine the compound that follows.
Exercise: Fill blank: measured viability, T/C of the compound O=C(Nc1ccc(O)c(NS(=O)(=O)c2ccc(F)cc2)c1)c1ccc(-c2ccccc2)cc1 + Nc1ccc(C#CCN(C(=O)Cc2ncc(C(F)(F)F)cc2C(F)(F)F)c2ccc(F)cc2)nn1 is ____.
Key: 96.2

###

Tested on: 857933-349-R-J2-PDC complex spheroid viability
EXPERIMENT DESCRIPTION: Anticancer human tumor 857933-349-R-J2-PDC cell line growth inhibition [POLQ];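 note: spheroids exposed to compounds for seven days before readout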
CONDITION INFO: second compound 0.0316 µM; first compound 0.01 µM; hits give low values
Protocol: Multicellular complex tumor spheroid response to Polymerase (POL) inhibitors (novobiocin, ART-558, RP6685) in combination with a variety of drugs and investigational agents in selected tumor cell lines The POL inhibitors (novobiocin, ART-558, and RP6685) were evaluated both individually and in combination with standard of care and investigational anticancer small molecules within a complex spheroid model of solid tumors. . […]
Please provide measured viability, T/C for the entries that follow.

Worked examples follow.
Exercise: Suppose we examine the compound CCc1c2c(nc3ccc(O)cc13)-c1cc3c(c(=O)n1C2)COC(=O)[C@]3(O)CC + COC1C(OC(N)=O)C(O)C(Oc2ccc3c(O)c(NC(=O)c4ccc(O)c(CC=C(C)C)c4)c(=O)oc3c2C)OC1(C)C ; what viability, T/C value has been reported?
Key: 71.7%

Exercise: What value of measured viability, T/C is listed for COc1cccc(OCCCN)c1-c1cc(Nc2cnc(C#N)cn2)n[nH]1 + COC1C(OC(N)=O)C(O)C(Oc2ccc3c(O)c(NC(=O)c4ccc(O)c(CC=C(C)C)c4)c(=O)oc3c2C)OC1(C)C ?
Key: 75.5%

Exercise: Given the compound C=CCn1c(=O)c2cnc(Nc3ccc(N4CCN(C)CC4)cc3)nc2n1-c1cccc(C(C)(C)O)n1 + Cc1cccc(N(C)C(=O)C2C(O)CCN2c2nc(C)cc(C(F)(F)F)c2C#N)c1 , what is its reported viability, T/C?
Key: 98.2%

Exercise: Please give the measured viability, T/C for this compound: Cn1ncnc1[C@H]1c2n[nH]c(=O)c3cc(F)cc(c23)N[C@@H]1c1ccc(F)cc1 + Nc1ccc(C#CCN(C(=O)Cc2ncc(C(F)(F)F)cc2C(F)(F)F)c2ccc(F)cc2)nn1
Key: 90%

Next:
Exercise: Name the recorded viability, T/C for C=CCn1c(=O)c2cnc(Nc3ccc(N4CCN(C)CC4)cc3)nc2n1-c1cccc(C(C)(C)O)n1 + Nc1ccc(C#CCN(C(=O)Cc2ncc(C(F)(F)F)cc2C(F)(F)F)c2ccc(F)cc2)nn1 .
Key: 98.7%

###

Test system: 857933-349-R-J2-PDC complex spheroid viability
EXPERIMENT DESCRIPTION: Anticancer human tumor 857933-349-R-J2-PDC cell line growth inhibition [POLQ];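 note: spheroids exposed to compounds for seven days before readout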
CONDITION INFO: second compound 1 µM; first compound 0.316 µM; hits give low values
Mark each entry T if its viability, T/C sits below 80%, and F for all others.

Exercise: Item CC1COCCN1c1cc(C2(O)CC3CCC(C2)O3)c2cnn(-c3ccn[nH]3)c2n1 (stereo not given) + Nc1ccc(C#CCN(C(=O)Cc2ncc(C(F)(F)F)cc2C(F)(F)F)c2ccc(F)cc2)nn1 : viability, T/C beneath 80%, strictly?
Key: T

Exercise: Determine if COc1cc(C2c3cc4c(cc3C(OC3OC5COC(C)OC5C(O)C3O)C3COC(=O)C23)OCO4)cc(OC)c1O (stereo not given) + Cc1cccc(N(C)C(=O)C2C(O)CCN2c2nc(C)cc(C(F)(F)F)c2C#N)c1 shows viability, T/C strictly lower than 80%.
Key: T

Exercise: I'd appreciate it if you could check whether COc1ccc([C@@H](O)c2cc(-c3ncnc4cc(N5CCOCC5)ccc34)c(F)cc2Cl)nn1 + COC1C(OC(N)=O)C(O)C(Oc2ccc3c(O)c(NC(=O)c4ccc(O)c(CC=C(C)C)c4)c(=O)oc3c2C)OC1(C)C has viability, T/C smaller than 80%.
Key: F

Exercise: Please state whether viability, T/C is below 80% for CC1COCCN1c1cc(-c2ccnn2C)c2ccnc(-c3ccn[nH]3)c2n1 (stereo not given) + COC1C(OC(N)=O)C(O)C(Oc2ccc3c(O)c(NC(=O)c4ccc(O)c(CC=C(C)C)c4)c(=O)oc3c2C)OC1(C)C
Key: T

Exercise: Threshold test, viability, T/C < 80%: O=c1[nH]cc(F)c(=O)[nH]1 + Nc1ccc(C#CCN(C(=O)Cc2ncc(C(F)(F)F)cc2C(F)(F)F)c2ccc(F)cc2)nn1
Key: F

Exercise: Strictly below 80% in viability, T/C? CC1COCCN1c1cc(C2(S(C)(=N)=O)CC2)nc(-c2ccnc3[nH]ccc23)n1 (stereo not given) + Cc1cccc(N(C)C(=O)C2C(O)CCN2c2nc(C)cc(C(F)(F)F)c2C#N)c1
Key: F

Exercise: Is it true that viability, T/C reported for COc1ccc([C@@H](O)c2cc(-c3ncnc4cc(N5CCOCC5)ccc34)c(F)cc2Cl)nn1 + Nc1ccc(C#CCN(C(=O)Cc2ncc(C(F)(F)F)cc2C(F)(F)F)c2ccc(F)cc2)nn1 is less than 80%?
Key: F

Exercise: Lab note: viability, T/C threshold 80%. Does this compound come in strictly under it? COc1cc(C2c3cc4c(cc3C(OC3OC5COC(C)OC5C(O)C3O)C3COC(=O)C23)OCO4)cc(OC)c1O (stereo not given) + Nc1ccc(C#CCN(C(=O)Cc2ncc(C(F)(F)F)cc2C(F)(F)F)c2ccc(F)cc2)nn1
Key: T

Note: attention shifts to another entry.
Exercise: Consider CCc1cc2c(N3CCc4c(cc(Cn5ccnc5)cc4-c4cn(C)nc4C(F)(F)F)C3=O)ccnc2c(OC)n1 + Cc1cccc(N(C)C(=O)C2C(O)CCN2c2nc(C)cc(C(F)(F)F)c2C#N)c1 . Does its viability, T/C lie strictly below 80%?
Key: F
